Where do these numbers come from? They come from patent US20250011363A1.

target-desc: acetylcholine receptor
measurement-description: SPR, AchR immobilized on chip
Reported Binding affinity (relative to RRQRR) (relative value to the RRQRR sequence) by item:
result-type: Binding affinity (relative to RRQRR) (relative value to the RRQRR sequence)

{"binder": "DRRQRR", "recorded-measurement": 163}
{"binder": "QRRQRR", "recorded-measurement": 105}
{"binder": "RRQRRV", "recorded-measurement": 120}
{"binder": "RRQRRH", "recorded-measurement": 158}
{"binder": "RRQRRS", "recorded-measurement": 113}
{"binder": "LRRQRR", "recorded-measurement": 144}
{"binder": "NRRQRR", "recorded-measurement": 113}
{"binder": "FRRQRR", "recorded-measurement": 143}
